tested on: LOX IMVI melanoma; experiment: NCI-60 one-dose screen, 48 h (100 = growth as untreated, 0 = no growth, -100 = all killed); settings: 10 µM unless noted
Compounds without any hit were thinned out: in the full panel of roughly 83,000, 20% have a hit.
Hi there, I'd appreciate the recorded growth for every entry that follows.
State just the number; it will be interpreted in %.

q: Give LOX IMVI melanoma growth for the following molecule: Cc1cc(C(NC(=O)CCCCCNc2cccc3c2C(=O)N(C2CCC(=O)NC2=O)C3=O)c2ccc3c(c2)OC(F)(F)O3)c(O)c2ncccc12 (centres undefined)
a: 57.9

q: // output growth; input `COc1ccc([C@@H]2[C@@H](O)C(=O)N2c2cc(OC)c(OC)c(OC)c2)cc1F` ; system LOX IMVI melanoma
a: -4.8

q: Report growth from LOX IMVI melanoma testing of `CC(=O)c1cc(C(=O)N2c3ccccc3Sc3ccccc32)n2ccc3ccccc3c12`
a: 41.4

q: For LOX IMVI melanoma, give the measured growth of the entry `CS(=O)(=O)c1ccc(-c2nn(-c3ccccc3)cc2/C=N/NC(=O)c2nc(N)n[nH]2)cc1`
a: 84.7
